Each entry below lists one item and its recorded IC50 value.
# Test system: phosphorylation of eIF4E at ser209 in MV4.11 cell line
# protocol: MNK cellular activity phospho-eIF4E detection assay (Alphascreen Surefire)
# Assay type: cell-based
# condition.parameters: Homo sapiens; MV4.11 cell line, phospho-eIF4E (ser209) Alphascreen Surefire; read-out: P(IC50) elF4E (converted)
Express the result in nM but write the number alone.

• CNCCCNC(=O)c1nc2c(Nc3ccc(F)cc3OC(C)C)ncnc2s1 = 39.8
• O=C(NC1CCOCC1)c1nc2c(N3CC4(CCOCC4)c4ccccc43)ncnc2s1 = 31.6
• O=C(NCC1CCNCC1)c1nc2c(N3c4ccccc4C[C@H]3CO)ncnc2s1 = 158
• CN1CCC(NC(=O)c2nc3c(N4CCc5cc(F)ccc54)ncnc3s2)CC1 = 3.98
• O=C(NCC1CCNCC1)c1nc2c(Nc3ccc(F)cc3OC(CF)CF)ncnc2s1 = 100

Input: Using the record for `O=C(NC1CCNCC1)c1nc2c(N3CCc4cc(F)ccc43)ncnc2s1` , report its IC50.
Output: 3.16

* * *

# assay.system: Full-length human MNK1 (Homo sapiens, UniProt Q9BUB5, T385D)
# Construct: GST (N); purchased Carna Biosciences 02-145; host or cells: baculovirus expression system
# Sequence (Q9BUB5 1-424 isoform Q9BUB5-2 T344D): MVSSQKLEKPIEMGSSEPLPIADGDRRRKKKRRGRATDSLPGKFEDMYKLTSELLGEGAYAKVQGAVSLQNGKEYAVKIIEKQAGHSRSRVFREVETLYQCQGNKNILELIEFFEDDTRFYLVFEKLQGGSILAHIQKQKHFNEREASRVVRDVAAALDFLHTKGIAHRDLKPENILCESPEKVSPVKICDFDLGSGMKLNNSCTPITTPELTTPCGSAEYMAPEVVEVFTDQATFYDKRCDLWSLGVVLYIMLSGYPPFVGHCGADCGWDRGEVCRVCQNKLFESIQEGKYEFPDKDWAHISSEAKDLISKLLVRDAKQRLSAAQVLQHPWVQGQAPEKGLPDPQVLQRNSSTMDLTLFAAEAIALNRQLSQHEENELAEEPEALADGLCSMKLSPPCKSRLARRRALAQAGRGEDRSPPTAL
# protocol: MNK1 biochemical IC50 assay (Caliper Mobility Shift Assay)
# condition.parameters: read-out: P(IC50) MNK1 (converted)
Strictly below 20 nM in IC50: Condition met. Otherwise: Condition not met.

As a guide, the following entries are already answered.
* CC(C)Oc1cc(F)ccc1Nc1ncnc2sc(C(=O)NC3CC4CCC(C3)N4)nc12 (stereo not drawn) | Condition not met
* CNCCCNC(=O)c1nc2c(N3c4ccccc4C[C@@H]3C)ncnc2s1 | Condition not met
* COc1ccc2c(c1)CCN2c1ncnc2sc(C(=O)NCC3CCNCC3)nc12 | Condition not met
* CN(C)CCCNC(=O)c1nc2c(Nc3cccc4c3OCC4)ncnc2s1 | Condition not met

Input: # check: IC50 < 20 nM for `O=C(NCCCn1cccn1)c1nc2c(N3CCc4cc(F)ccc43)ncnc2s1`
Output: Condition met

Input: Say whether its IC50 is strictly beneath 20 nM. Entry: `O=C(NCC1CCNCC1)c1nc2c(N3CCOc4cc(F)ccc43)ncnc2s1`
Output: Condition not met

Input: hey, is IC50 for `CN1CCN(C(=O)c2nc3c(N4CCc5ccccc54)ncnc3s2)CC1` lower than 20 nM or not?
Output: Condition not met

Input: Answer whether the compound `Fc1ccc2c(c1)CCN2c1ncnc2sc(N3CCOCC3)nc12` has IC50 strictly less than 20 nM
Output: Condition not met

Input: Does this compound meet the criterion IC50 < 20 nM? CC1(CCO)CN(c2ncnc3sc(C(=O)NCC4CCNCC4)nc23)c2ccccc21 (stereo not drawn)
Output: Condition met

Input: A record lists CNCCC1CN(c2ncnc3sc(C(=O)NC4CCOCC4)nc23)c2ccc(F)cc21 (stereo not drawn) . Is its IC50 below 20 nM?
Output: Condition met

Input: Quick check: does `CN1CCN(c2ncnc3sc(C(=O)NCC4CCNCC4)nc23)c2ccc(F)cc21` have IC50 under 20 nM?
Output: Condition not met

* * *

# Tested on: phosphorylation of eIF4E at ser209 in MV4.11 cell line
# protocol: MNK cellular activity phospho-eIF4E detection assay (Alphascreen Surefire)
# Format: cell-based
# condition.parameters: Homo sapiens; MV4.11 cell line, phospho-eIF4E (ser209) Alphascreen Surefire; read-out: P(IC50) elF4E (converted)
Entries and their log10 of IC50 values follow.
Scale: decimal log of IC50, IC50 in nM.

Answered cases to consult:
• CC(C)Oc1cc(F)ccc1Nc1ncnc2sc(CO)nc12 [Example 48] = 1.30
• CN1CCC2(CC1)CN(c1ncnc3sc(C(=O)NC4CCOCC4)nc13)c1ccccc12 [Example 40] = 1.70
• O=C(NC1CCOCC1)c1nc2c(N3CC(CO)c4ccccc43)ncnc2s1 (stereo not drawn) [Example 109] = 1.10

Input: Report log10 of IC50 for CN(C)CCCNC(=O)c1nc2c(Nc3ccc(F)cc3OC3CCCC3)ncnc2s1 [Example 22] please.
Output: 1.80

Input: What value of log10 of IC50 has been reported for the following compound? O=C(NC1CCOCC1)c1nc2c(N3CCc4cc(O)ccc43)ncnc2s1 [Example 114]
Output: 0.20

Input: Entry under review: CC1(CO)CN(c2ncnc3sc(C(=O)NCC4CCNCC4)nc23)c2ccc(F)cc21 (stereo not drawn) [Example 141] . Reported log10 of IC50?
Output: 1.30

Input: // query log10 of IC50 value for entry O=C(NCC1CCNCC1)c1nc2c(Nc3ccc(F)cc3OC(F)(F)F)ncnc2s1 [Example 59]
Output: 2.80

Input: Could you share which log10 of IC50 value was measured for CNC(=O)c1nc2c(N3CC(C)c4ccccc43)ncnc2s1 (stereo not drawn) [Example 156] ?
Output: 0.70

Input: Entry C[C@H]1Cc2ccccc2N1c1ncnc2sc(C(=O)NC3CCNCC3)nc12 [Example 132] has what log10 of IC50?
Output: 1.40

Input: Given the entry C[C@@H]1Cc2ccccc2N1c1ncnc2sc(C(=O)NC3CCNCC3)nc12 [Example 129] , report its measured log10 of IC50.
Output: 1.90
